Exercise: state measured activity at 50 µM for each of the compounds provided.
Target: Human MTAP (Homo sapiens, UniProt Q13126)
Construct: six-histidine tag (His6) (N); made in house; host or cells: E. coli BL21 DE3
Assay: MTAP substrate assay, coupled spectrophotometric (adenine, xanthine oxidase)
Format: biochemical
Conditions: 10 min; compound 50 uM, 2 nM MTAP, relative to MTA at 50 uM; read-out: MT-A—50: initial velocity as a percentage of the initial velocity with MTA as substrate
Give bare numbers, in %.

Worked examples follow.
1. Nc1ncnc2c1ncn2[C@@H]1O[C@H](CSc2nc(O)c3cc[nH]c3n2)[C@@H](O)[C@H]1O [2(G)(64)] | 48
2. CCOC(=O)c1c[nH]c(SC[C@H]2O[C@@H](n3cnc4c(N)ncnc43)[C@H](O)[C@@H]2O)n1 [2(G)(132)] | 1.5
3. CCOC(=O)c1cnc(SC[C@H]2O[C@@H](n3cnc4c(N)ncnc43)[C@H](O)[C@@H]2O)nc1N [2(G)(36)] | 40

Please supply activity at 50 µM for each of the following items, keeping them in order.
1. Nc1ncnc2c1ncn2[C@@H]1O[C@H](CSCc2ccc(Cl)cc2)[C@@H](O)[C@H]1O [2(G)(124)]
2. Cc1nc(SC[C@H]2O[C@@H](n3cnc4c(N)ncnc43)[C@H](O)[C@@H]2O)nc(O)c1C [2(G)(158)]
3. COc1ccc(OC)c(SC[C@H]2O[C@@H](n3cnc4c(N)ncnc43)[C@H](O)[C@@H]2O)c1 [2(G)(24)]
4. Nc1ncnc2c1ncn2[C@@H]1O[C@H](CSc2ccccc2F)[C@@H](O)[C@H]1O [2(G)(117)]

Result ::
[51, 43.5, 23, 28]

====

Exercise: state measured MT-A—10: initial velocity as a percentage of the initial velocity with MTA as substrate for each of the compounds provided.
Molecular target: Human MTAP (Homo sapiens, UniProt Q13126)
Construct: six-histidine tag (His6) (N); made in house; host or cells: E. coli BL21 DE3
Experiment: MTAP substrate assay, coupled spectrophotometric (adenine, xanthine oxidase)
Assay type: biochemical
Conditions: compound 10 uM, 2 nM MTAP, relative to MTA at 10 uM
One number for each entry, in %.

1) COc1ccc2sc(SC[C@H]3O[C@@H](n4cnc5c(N)ncnc54)[C@H](O)[C@@H]3O)nc2c1 [2(G)(86)] | 31
2) CCc1ccc(SC[C@H]2O[C@@H](n3cnc4c(N)ncnc43)[C@H](O)[C@@H]2O)cc1 [2(G)(80)] | 13
3) CCCCOC(=O)CSC[C@H]1O[C@@H](n2cnc3c(N)ncnc32)[C@H](O)[C@@H]1O [2(G)(133)] | 22.5
4) Cc1cc(C)n2nc(SC[C@H]3O[C@@H](n4cnc5c(N)ncnc54)[C@H](O)[C@@H]3O)nc2n1 [2(G)(32)] | 6
5) COc1cccc(-c2nnc(SC[C@H]3O[C@@H](n4cnc5c(N)ncnc54)[C@H](O)[C@@H]3O)n2C)c1 [2(G)(111)] | 8
6) Nc1ncnc2c1ncn2[C@@H]1O[C@H](CSc2cccc(F)c2)[C@@H](O)[C@H]1O [2(G)(147)] | 18.5

Query :: # input compound: Nc1ncnc2c1ncn2[C@@H]1O[C@H](CSc2ccc(/C=C/C(=O)O)cc2)[C@@H](O)[C@H]1O [2(G)(108)] ; wanted: its MT-A—10: initial velocity as a percentage of the initial velocity with MTA as substrate
Result :: 8

====

Target: Human MTAP (Homo sapiens)
Construct: six-histidine tag (His6) (N); made in house; host or cells: E. coli BL21 DE3
Experiment: MTAP substrate assay, coupled spectrophotometric (adenine, xanthine oxidase)
Type: biochemical
Conditions: 10 min; compound 50 uM, 2 nM MTAP, relative to MTA at 50 uM; read-out: MT-A—50: initial velocity as a percentage of the initial velocity with MTA as substrate
Exercise: state measured activity at 50 µM for each of the compounds provided.
Give bare numbers, in %.

1) Cc1ccc(SC[C@H]2O[C@@H](n3cnc4c(N)ncnc43)[C@H](O)[C@@H]2O)cc1C | 33.5
2) Nc1ncnc2c1ncn2[C@@H]1O[C@H](CSCCc2ccncc2)[C@@H](O)[C@H]1O | 47
3) Nc1ncnc2c1ncn2[C@@H]1O[C@H](CSc2nccc(C(F)(F)F)n2)[C@@H](O)[C@H]1O | 36

Please supply activity at 50 µM for each of the following items, keeping them in order.
1. COC(=O)c1ccccc1SC[C@H]1O[C@@H](n2cnc3c(N)ncnc32)[C@H](O)[C@@H]1O
2. Nc1ncnc2c1ncn2[C@@H]1O[C@H](CSc2cnccn2)[C@@H](O)[C@H]1O
3. Nc1cccc(SC[C@H]2O[C@@H](n3cnc4c(N)ncnc43)[C@H](O)[C@@H]2O)c1
4. CC(C)SC[C@H]1O[C@@H](n2cnc3c(N)ncnc32)[C@H](O)[C@@H]1O
5. CCCCOC(=O)CSC[C@H]1O[C@@H](n2cnc3c(N)ncnc32)[C@H](O)[C@@H]1O

Result ::
2
40
38
57
31.5

====

Target: Human MTAP (Homo sapiens)
Construct: six-histidine tag (His6) (N); made in house; host or cells: E. coli BL21 DE3
Assay: MTAP substrate assay, coupled spectrophotometric (adenine, xanthine oxidase)
Type: biochemical
Details: compound 10 uM, 2 nM MTAP, relative to MTA at 10 uM
# strict inequality: MT-A—10: initial velocity as a percentage of the initial velocity with MTA as substrate < 20% yields Y, everything else yields N

Example entries begin here.
1. CCCc1cc(O)nc(SC[C@H]2O[C@@H](n3cnc4c(N)ncnc43)[C@H](O)[C@@H]2O)n1 [2(G)(162)] | N
2. CCOC(=O)C(C)SC[C@H]1O[C@@H](n2cnc3c(N)ncnc32)[C@H](O)[C@@H]1O (some centres unmarked) [2(G)(140)] | Y
3. Nc1ncnc2c1ncn2[C@@H]1O[C@H](CSc2nc3ccccc3s2)[C@@H](O)[C@H]1O [2(G)(12)] | N
4. COC(=O)CSC[C@H]1O[C@@H](n2cnc3c(N)ncnc32)[C@H](O)[C@@H]1O [2(G)(54)] | N
5. CC(O)CSC[C@H]1O[C@@H](n2cnc3c(N)ncnc32)[C@H](O)[C@@H]1O (some centres unmarked) [2(G)(141)] | Y
6. Nc1ncnc2c1ncn2[C@@H]1O[C@H](CSCc2csc3ccccc23)[C@@H](O)[C@H]1O [2(G)(93)] | Y
7. CCCCCCCCSC[C@H]1O[C@@H](n2cnc3c(N)ncnc32)[C@H](O)[C@@H]1O [2(G)(142)] | Y

Query :: Just wondering, is MT-A—10: initial velocity as a percentage of the initial velocity with MTA as substrate of CCCCCCSC[C@H]1O[C@@H](n2cnc3c(N)ncnc32)[C@H](O)[C@@H]1O [2(G)(126)] below 20%?
Result :: N

====

Target: Human MTAP (Homo sapiens, UniProt Q13126)
Construct: six-histidine tag (His6) (N); made in house; host or cells: E. coli BL21 DE3
Experiment: MTAP substrate assay, coupled spectrophotometric (adenine, xanthine oxidase)
Format: biochemical
Settings: compound 10 uM, 2 nM MTAP, relative to MTA at 10 uM
METRIC_NAME: MT-A—10: initial velocity as a percentage of the initial velocity with MTA as substrate

1) Nc1ncnc2c1ncn2[C@@H]1O[C@H](CSc2cc(Cl)cc(Cl)c2)[C@@H](O)[C@H]1O | 11.5%

Please supply MT-A—10: initial velocity as a percentage of the initial velocity with MTA as substrate for each of the following items, keeping them in order.
1. Cc1cnc(SC[C@H]2O[C@@H](n3cnc4c(N)ncnc43)[C@H](O)[C@@H]2O)nc1O
2. CCOC(=O)CSC[C@H]1O[C@@H](n2cnc3c(N)ncnc32)[C@H](O)[C@@H]1O
3. Nc1ncnc2c1ncn2[C@@H]1O[C@H](CSc2cccc(Br)c2)[C@@H](O)[C@H]1O

Result ::
22.5%
25%
21%

====

Exercise: state measured activity at 50 µM for each of the compounds provided.
Biological target: Human MTAP (Homo sapiens)
Construct: six-histidine tag (His6) (N); made in house; host or cells: E. coli BL21 DE3
Sequence (Q13126 1-283): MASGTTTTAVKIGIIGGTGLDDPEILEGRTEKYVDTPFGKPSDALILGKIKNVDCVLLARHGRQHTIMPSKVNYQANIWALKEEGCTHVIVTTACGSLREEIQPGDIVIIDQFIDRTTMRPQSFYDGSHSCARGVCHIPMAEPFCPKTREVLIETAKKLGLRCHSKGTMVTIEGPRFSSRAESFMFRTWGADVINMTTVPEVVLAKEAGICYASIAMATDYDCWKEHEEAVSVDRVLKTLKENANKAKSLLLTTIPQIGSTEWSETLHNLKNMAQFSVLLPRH
Test: MTAP substrate assay, coupled spectrophotometric (adenine, xanthine oxidase)
Type: biochemical
Conditions: 10 min; compound 50 uM, 2 nM MTAP, relative to MTA at 50 uM; read-out: MT-A—50: initial velocity as a percentage of the initial velocity with MTA as substrate
Procedure: An enzymatic assay to determine the activity of MTAP against a given substrate was performed. Human MTAP containing an N-terminal six-histidine tag was expressed in E. coli BL21 DE3 cells. The protein was purified to homogeneity by Ni2+ affinity chromatography. Enzymatic activity was measured using a coupled spectrophotometric assay designed to monitor the reaction product adenine (Savarese, T. M., Crabtree, G. W., and Parks, R. E. Jr., (1980) Biochem. Pharmacol. 30, 189-199). […]
Answers are plain numbers, in %.

Worked examples follow.
1) Cc1cc(C)n2nc(SC[C@H]3O[C@@H](n4cnc5c(N)ncnc54)[C@H](O)[C@@H]3O)nc2n1 | 7
2) Nc1ncnc2c1ncn2[C@@H]1O[C@H](CSC[C@@H]2NC(=O)NC2=O)[C@@H](O)[C@H]1O | 22
3) CCc1ccccc1SC[C@H]1O[C@@H](n2cnc3c(N)ncnc32)[C@H](O)[C@@H]1O | 7
4) Nc1ncnc2c1ncn2[C@@H]1O[C@H](CSc2nc3cccnc3s2)[C@@H](O)[C@H]1O | 2
5) CN(C)Cc1nnc(SC[C@H]2O[C@@H](n3cnc4c(N)ncnc43)[C@H](O)[C@@H]2O)n1C | 6

Please supply activity at 50 µM for each of the following items, keeping them in order.
1. Nc1ncnc2c1ncn2[C@@H]1O[C@H](CSc2ccc(Cl)cc2)[C@@H](O)[C@H]1O
2. Nc1ncnc2c1ncn2[C@@H]1O[C@H](CSc2c[nH]c3ccccc23)[C@@H](O)[C@H]1O
3. Cc1cccc(C)c1SC[C@H]1O[C@@H](n2cnc3c(N)ncnc32)[C@H](O)[C@@H]1O

Result ::
17
3
15
